- experimental protocol: Phase 1 study (NCT05463952): plasma pharmacokinetics after a single dose and multiple once-daily doses
- Format: in vivo, human
- condition set: human, plasma, oral, 200 mg, plasma; vepdegestrant 200 mg QD; multiple doses (cycle 1 day 15); N = 6; geometric mean (geometric % CV); read-out: AUC24
quantity kind: AUC

>>> recorded_value("O=C1CC[C@H](N2Cc3cc(N4CCN(CC5CCN(c6ccc([C@@H]7c8ccc(O)cc8CC[C@@H]7c7ccccc7)cc6)CC5)CC4)ccc3C2=O)C(=O)N1 [Vepdegestrant]")
"18300 ng·h/mL"

====

- experimental protocol: Phase 1 study (NCT05463952): plasma pharmacokinetics after a single dose and multiple once-daily doses
- Type: in vivo, human
- condition set: human, plasma, po, 200 mg, plasma; vepdegestrant 200 mg QD oral with food; multiple doses (cycle 1 day 15); N = 6; geometric mean (geometric % CV)
quantity kind: Cmax (ng/mL)

>>> recorded_value("O=C1CC[C@H](N2Cc3cc(N4CCN(CC5CCN(c6ccc([C@@H]7c8ccc(O)cc8CC[C@@H]7c7ccccc7)cc6)CC5)CC4)ccc3C2=O)C(=O)N1")
1060

====

- experimental protocol: Phase 1 study (NCT05463952): plasma pharmacokinetics after a single dose and multiple once-daily doses
- Format: in vivo, human
- condition set: human, plasma, po, 200 mg, plasma; vepdegestrant 200 mg QD oral with food; single dose (cycle 1 day 1); N = 6; geometric mean (geometric % CV)
quantity kind: Cmax (ng/mL)

>>> recorded_value("O=C1CC[C@H](N2Cc3cc(N4CCN(CC5CCN(c6ccc([C@@H]7c8ccc(O)cc8CC[C@@H]7c7ccccc7)cc6)CC5)CC4)ccc3C2=O)C(=O)N1 [Vepdegestrant]")
631
